Cited source for all entries: patent US20190255073A1

System: P. aeruginosa ATCC27853
Assay: MIC determination by microplate dilution, P. aeruginosa human strain
Format: cell-based, Pseudomonas aeruginosa
Conditions: Pseudomonas aeruginosa, ATCC27853, Gram-negative, Mueller-Hinton medium, 24 h, 37° C.
value_type: MIC (µg/mL)
The response must be a number in µg/mL with no trailing unit.

Field: example entries. Status: answers known.
compound	unit_label	test_value
CC(C)OC(=O)CC[C@@H](C)[C@H]1CCC2C3C(C[C@H](O)[C@@]21C)[C@@]1(C)CC[C@H](NCCCN(CCCN)CCCN)CC1C[C@H]3O (some centres unmarked)	µg/mL	30
CC(C)OC(=O)CC[C@@H](C)[C@H]1CCC2C3C(CC[C@@]21C)[C@@]1(C)CC[C@H](NCCN(CCN)CCN)CC1C[C@H]3O (some centres unmarked)	µg/mL	56

Lookup: Which MIC value belongs to CC(C)OC(=O)CC[C@@H](C)[C@H]1CCC2C3CCC4C[C@@H](NCCN(CCN)CCN)CC[C@]4(C)C3C[C@H](O)[C@@]21C (some centres unmarked) ?
Found: 56

Lookup: Which MIC value belongs to COC(=O)CC[C@@H](C)[C@H]1CCC2C3C(C[C@H](O)[C@@]21C)[C@@]1(C)CC[C@H](NCCCN(C)CCCN)C[C@H]1C[C@H]3O (some centres unmarked) ?
Found: 27

Lookup: Which MIC value belongs to CC(C)OC(=O)CC[C@@H](C)[C@H]1CCC2C3CCC4C[C@@H](NCCCNCCCNCCCN)CC[C@]4(C)C3C[C@H](O)[C@@]21C (stereo partly drawn) [Compound (1), isopropyl 3β-norsperminodeoxycholate] ?
Found: 8

Lookup: Which MIC value belongs to COC(=O)CC[C@@H](C)[C@H]1CCC2C3C(CC[C@@]21C)[C@@]1(C)CC[C@H](NCCCN(C)CCCN)CC1C[C@H]3O (some centres unmarked) ?
Found: 27

Lookup: Which MIC value belongs to CC(C)OC(=O)CC[C@@H](C)[C@H]1CCC2C3C(C[C@H](O)[C@@]21C)[C@@]1(C)CC[C@H](NCCCNCCCNCCCN)CC1C[C@H]3O (stereo partly drawn) [Compound (6), isopropyl 3β-norsperminocholate] ?
Found: 30

Lookup: Which MIC value belongs to COC(=O)CC[C@@H](C)[C@H]1CCC2C3CCC4C[C@@H](NCCCN(C)CCCN)CC[C@]4(C)C3CC[C@@]21C (some centres unmarked) ?
Found: 26

---

Test system: E. coli (1956)
Test: MIC determination by microplate dilution, E. coli animal strain
Format: cell-based, Escherichia coli
Conditions: Escherichia coli, Gram-negative, Mueller-Hinton medium, 24 h, 37° C.
Description: 1) Preparation of the Preculture A negative control (2 mL of sterile culture medium) […] After 24 hours of incubation, a measurement of the optical density was taken using a spectrophotometer at 600 nm, collecting 100 μL of the bacterial suspension diluted in 900 μL of the sterile culture medium. This test required the use of a 96-well plate and the required volume of the microbial suspension to be seeded was calculated for an OD corresponding to a value equal to 0.01 in each well. […]
value_type: MIC (µg/mL)
The response must be a number in µg/mL with no trailing unit.

Field: example entries. Status: answers known.
compound	value_type	test_value
CC(C)OC(=O)CC[C@@H](C)[C@H]1CCC2C3CCC4C[C@@H](NCCCNCCCN)CC[C@]4(C)C3C[C@H](O)[C@@]21C (stereo partly drawn) [Compound (2), isopropyl 3β-norspermidinodeoxycholate]	MIC	28
COC(=O)CC[C@@H](C)[C@H]1CCC2C3CCC4C[C@@H](NCCCNCCCNCCCN)CC[C@]4(C)C3C[C@H](O)[C@@]21C (stereo partly drawn) [Compound (3), methyl 3β-norsperminodeoxycholate]	MIC	14
CC(C)OC(=O)CC[C@@H](C)[C@H]1CCC2C3C(C[C@H](O)[C@@]21C)[C@@]1(C)CC[C@H](NCCCN(CCCN)CCCN)CC1C[C@H]3O (some centres unmarked)	MIC	30
CC(C)OC(=O)CC[C@@H](C)[C@H]1CCC2C3CCC4C[C@@H](NCCCNCCCNCCCN)CC[C@]4(C)C3CC[C@@]21C (stereo partly drawn) [Compound (15), isopropyl 3β-norsperminolithocholate]	MIC	7

Read the next record carefully.
Lookup: Which MIC value belongs to COC(=O)CC[C@@H](C)[C@H]1CCC2C3C(C[C@H](O)[C@@]21C)[C@@]1(C)CC[C@H](NCCCN(C)CCCN)C[C@H]1C[C@H]3O (some centres unmarked) ?
Found: 50
